The reported numbers originate from the supplement of paper PMC10065799.

- SYSTEM: c-Src SH2;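 note: peptide library displayed on the E. coli surface as eCPX fusions, selected cells deep-sequenced, score is each peptide's frequency after selection divided by its frequency in the input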
- ASSAY TEXT: SH2 binding enrichment of the phosphorylated peptide, bacterial display (enrichment ratio); higher = better substrate or ligand; peptides without Tyr show the background
Listing of recorded SH2 binding enrichment by entry.
Could you keep your reply to the number by itself?

Form: sequence = IDGLEYLHSPG [STK11_Y166_Q170P] ; SH2 binding enrichment = 0.491

For reference, reported SH2 binding enrichment for LENSTYQYIRV [CRB1_Y760] stands at 1.72

Briefly, SH2 binding enrichment measured for IVGRLYRLLTE [SETX_Y1978_L1976R] : 0.738

TTKGSYSLFVR [HCK_Y180_S183Y_YF] has a reported SH2 binding enrichment of 0.552
